In this section we review reported IC50 values for a set of compounds.
system: CRTH2 (Homo sapiens, UniProt Q9Y5Y4)
Construct: polymorphonuclear cells (0.5 ml; 10^6/ml cells) in PBS containing 0.9 mM CaCl2 and 0.5 mM MgCl2; endogenous in cells; host or cells: polymorphonuclear cells (eosinophils gated by flow cytometry)
Sequence (Q9Y5Y4 whole entry): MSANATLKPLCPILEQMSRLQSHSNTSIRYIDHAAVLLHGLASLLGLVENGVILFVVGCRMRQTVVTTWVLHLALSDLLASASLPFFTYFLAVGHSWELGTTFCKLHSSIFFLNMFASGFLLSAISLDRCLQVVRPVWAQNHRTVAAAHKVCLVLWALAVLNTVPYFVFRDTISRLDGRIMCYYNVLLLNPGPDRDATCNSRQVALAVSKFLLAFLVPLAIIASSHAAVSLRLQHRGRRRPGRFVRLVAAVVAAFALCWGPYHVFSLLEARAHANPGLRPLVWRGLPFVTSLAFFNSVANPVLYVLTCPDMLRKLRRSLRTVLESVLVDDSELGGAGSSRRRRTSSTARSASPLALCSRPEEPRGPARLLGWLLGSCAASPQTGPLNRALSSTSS
assay overview: Human Whole Blood CD11b Antagonist Assay
Type: cell-based
condition parameters: eosinophil CD11b expression, challenge with 15R-Methyl-PGD2 (10 nM)

The following compounds have reported results that may help.
1. Cc1c(Cc2ccccc2S(=O)(=O)N2CCOCC2)c2c(n1CC(=O)O)CCC(C)(C)C2 : 5 to 100 nM
2. Cc1c(Sc2ccc(S(=O)(=O)N3CCCC3)cc2)c2c(n1CC(=O)O)CCC(C)(C)C2 : > 500 nM
3. Cc1c(Cc2ccccc2S(=O)(=O)N2CCOCC2)c2c(n1CC(=O)O)CC(C)(C)CC2=O : 5 to 100 nM
4. Cc1c(Cc2ccccc2S(=O)(=O)c2ccccc2)c2c(n1CC(=O)O)CC(C)(C)CC2=O : < 5 nM
5. Cc1c(Cc2ccc(S(=O)(=O)N3CCOCC3)cc2)c2c(n1CC(=O)O)CCCC2 : 100 to 500 nM
6. Cc1c(Sc2ccc(S(=O)(=O)N3CCCC3)cc2)c2c(n1CC(=O)O)CC(C)(C)CC2=O : > 500 nM
7. Cc1c(Cc2ccccc2S(=O)(=O)N2CCOCC2)c2c(n1CC(=O)O)CCC(F)(F)C2 : < 5 nM

Could you now consider this next compound?
Input line: For the compound CCOC(=O)N1CCN(S(=O)(=O)c2ccc(Cc3c4c(n(CC(=O)O)c3C)CCC(C)(C)C4)cc2)CC1 , report IC50.
Output line: 5 to 100 nM

###

In this section we review reported IC50 values for a set of molecules.
system: CRTH2 (Homo sapiens, UniProt Q9Y5Y4)
Construct: polymorphonuclear cells (0.5 ml; 10^6/ml cells) in PBS containing 0.9 mM CaCl2 and 0.5 mM MgCl2; endogenous in cells; host or cells: polymorphonuclear cells (eosinophils gated by flow cytometry)
assay overview: DPBS CD11b Antagonist Assay
Format: cell-based
condition parameters: polymorphonuclear cells in PBS, eosinophil CD11b expression, challenge with 15R-Methyl-PGD2 (10 nM)

The following molecules have reported results that may help.
1) Cc1c(Cc2ccccc2S(=O)(=O)N2CCOCC2)c2c(n1CC(=O)O)CCC(F)(F)C2 : < 5 nM
2) Cc1c(Cc2ccccc2S(=O)(=O)N2CCOCC2)c2c(n1CC(=O)O)CC(C)(C)CC2 : < 5 nM
3) Cc1c(Cc2ccccc2S(=O)(=O)N2CCOCC2)c2c(n1[C@@H](C)C(=O)O)CCC(C)(C)C2 : 5 to 100 nM
4) Cc1c(Cc2ccc(S(=O)(=O)N3CCCCC3)cc2)c2c(n1CC(=O)O)CCC(C)(C)C2 : < 5 nM
5) Cc1c(Cc2ccccc2S(=O)(=O)N2CCCC2)c2c(n1CC(=O)O)CCCC2=O : < 5 nM
6) Cc1c(Cc2ccc(S(=O)(=O)N3CCCC3)cc2)c2c(n1CC(=O)O)CCCCC2 : 5 to 100 nM
7) Cc1c(Cc2ccc(S(=O)(=O)N3CCCCCC3)cc2)c2c(n1CC(=O)O)CCC(C)(C)C2 : 5 to 100 nM

Could you now consider this next molecule?
Input line: For the molecule CCOC(=O)N1CCN(S(=O)(=O)c2ccc(Cc3c4c(n(CC(=O)O)c3C)CCCC4)cc2)CC1 , report IC50.
Output line: < 5 nM

All figures here come from patent US20110312945A1.
